- Assay protocol: Growth inhibition test of mouse FM3A cells
- Type: cell-based
- Run parameters: mouse
Examples of molecules with documented EC50 at 48 h follow.
Your answer is read as nM, so omit the unit and give the number.

Molecule: CCn1c(=O)/c(=C/C=C2\Sc3ccc4ccccc4c3N2C)s/c1=C\c1scc(C)[n+]1CC
Readout: EC50 at 48 h
Unit text: nM
Result number: 1500

Molecule: C=C[C@H]1C[N@@]2CC[C@H]1C[C@H]2[C@H](O)c1ccnc2ccc(OC)cc12 [quinine, reference compound]
Readout: EC50 at 48 h
Unit text: nM
Result number: 100000

Kindly review the next molecule as well.
-- ask Please give the measured EC50 at 48 h for this molecule: "CCn1c(=O)/c(=C/C=C2\Sc3ccc4ccccc4c3N2C)s/c1=C\c1sc2ccc3ccccc3c2[n+]1CC"
-- reply 800

----------
- System: Rat derived-L6 cells (rat skeletal myoblast cell)
- Assay protocol: Growth inhibition test of rat L6 cells
- Assay type: cell-based
- Run parameters: 72 hours, Alamar Blue (Table 5), read-out: 50% growth inhibition concentration Cytotoxicity L6
Readout: EC50
I'd appreciate it if you included the unit after the number.

-- ask Entry under review: "C=CCn1c(=Cc2oc3ccccc3[n+]2C)sc(=CC=C2Sc3ccccc3N2C)c1=O" . Reported EC50?
-- reply 13 µM

----------
- Test system: Rat derived-L6 cells (rat skeletal myoblast cell)
- Assay protocol: Growth inhibition test of rat L6 cells
- Format: cell-based
- Run parameters: 72 hours, Alamar Blue (Table 3), read-out: 50% growth inhibiting concentration Cytotoxicity L6
Readout: EC50 (µM)
Hi! Could you send only the number? It should be in µM, unit omitted.

The following compounds have reported results that may help.
Compound: CCn1c(=Cc2sc3c4ccccc4ccc3[n+]2CC)sc(=CC=C2SCCN2C)c1=O [A-9]
Unit text: µM
EC50: 8.1
--
Compound: CCn1c(=Cc2cccc[n+]2C)sc(=CC=C2Sc3ccccc3N2C)c1=O [A-4]
Unit text: µM
EC50: 76

-- ask State the recorded EC50 for this entry: C=CCn1c(=Cc2oc3ccccc3[n+]2C)sc(=CC=C2Sc3ccccc3N2C)c1=O [A-13]
-- reply 13

-- ask Please answer likewise for CCn1c(=Cc2cc[n+](CC)c3ccccc23)sc(=CC=C2C=Cc3ccccc3N2C)c1=O [A-14]
-- reply 9.1

-- ask Thanks! And CCn1c(=Cc2oc3ccccc3[n+]2CC)sc(=CC=C2N(C)c3ccccc3C2(C)C)c1=O [A-8] ?
-- reply 1.8

----------
- Test system: Plasmodium falciparum K1 strain
- Assay protocol: Chloroquine resistant-Plasmodium falciparum growth inhibition screening test
- Type: cell-based
- Run parameters: Plasmodium falciparum, 72 h; chloroquine resistant K1 strain, 3H-hypoxanthine, 48 + 24 hours; read-out: 50% growth inhibition concentration P. falciparum K1
Readout: log10(EC50) (log10 of the value in nM)
In our notation, the value equals log10 of EC50 in nM.

Examples from the recorded data:
Molecule smiles: CCn1c(=O)/c(=C/C=C2\Sc3ccccc3N2C)s/c1=C\c1cccc[n+]1CCO
log10(EC50): 2.43
--
Molecule smiles: CCN1C(C)=CS/C1=C\C=c1/s/c(=C\c2sc3ccccc3[n+]2CC)n(CC)c1=O
log10(EC50): 1.88

-- ask // returns reported log10(EC50) for input "CCN1/C(=C/C=c2\s/c(=C\C3=[N+](CC)CCS3)n(CC)c2=O)C=Cc2ccccc21"
-- reply 2.08

-- ask Next compound up: "CCn1c(=O)/c(=C/C=C2\Sc3ccccc3N2C)s/c1=C\c1cccc[n+]1CCOCCOCCOC"
-- reply 2.28

-- ask Also check "CCN1/C(=C/C=c2\s/c(=C\c3sc4c5ccccc5ccc4[n+]3CC)n(CC)c2=O)Sc2ccc3ccccc3c21"
-- reply 1.04

-- ask And what about the compound "CCN1CCS/C1=C\C=c1/s/c(=C\c2sc3c4ccccc4ccc3[n+]2CCO)n(CC)c1=O" ?
-- reply 1.58

-- ask // repeat for "CCn1c(=O)/c(=C/C=C2\Sc3ccccc3N2C)s/c1=C\c1cccc[n+]1CCCCC(=O)O" and report
-- reply 2.32
